Sourced from BindingDB's records for doi:10.7270/Q2Z036M0

- EXPERIMENTAL_TARGET: S-ribosylhomocysteine lyase (Vibrio harveyi, UniProt B0LUE4)
- Sequence (B0LUE4 whole entry): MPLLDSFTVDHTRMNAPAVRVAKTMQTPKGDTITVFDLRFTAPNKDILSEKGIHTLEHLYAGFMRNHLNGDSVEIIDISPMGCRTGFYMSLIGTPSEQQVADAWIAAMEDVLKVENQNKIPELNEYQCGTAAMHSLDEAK
- EXPERIMENT: modulation of V. harveyi AI-2 signalling – luminescence, dose retest, Vibrio harveyi, confirmation (AID 2724)
Please note: EC50 exactly at 3000 nM is F. Only values below 3000 nM get T.

STRUCTURE_AS_SMILES: COc1cc(NC(=O)CN2C(=O)NC(c3ccccc3)(c3ccccc3)C2=O)cc(OC)c1
CLASS_NAME: T

STRUCTURE_AS_SMILES: Cn1cnc(S(=O)(=O)Nc2ccc(OC(F)(F)F)cc2)c1
CLASS_NAME: F

STRUCTURE_AS_SMILES: C=Cn1c(C(=O)O)ccc1-c1ccc(CC)cc1
CLASS_NAME: T

STRUCTURE_AS_SMILES: CCCc1ccc(S(=O)(=O)N(C)S(=O)(=O)c2ccc(F)cc2)cc1
CLASS_NAME: T

STRUCTURE_AS_SMILES: CN(C)S(=O)(=O)c1ccc(NC(=S)NC(=O)Cc2ccccc2)cc1
CLASS_NAME: F

STRUCTURE_AS_SMILES: CCc1ccc(S(=O)(=O)Nc2ccc(Br)cn2)cc1
CLASS_NAME: F

STRUCTURE_AS_SMILES: Cc1cccc(NS(=O)(=O)c2ccc(Oc3ccccc3)cc2)n1
CLASS_NAME: T
